Assay: Inhibition of almond beta-glucosidase at pH 7.3 after 10 to 30 mins
Design: species or system Prunus dulcis
pKi: −log10 of the molar value.

COMPOUND SMILES | pKi
CCN(CC)c1ccc2cc(C(=O)NCCCC/N=C3\SC[C@@H]4[C@@H](O)[C@H](O)[C@@H](O)[C@@H](O)N34)c(=O)oc2c1 | 6.35
CN(C)c1cccc2c(S(=O)(=O)NCCCC/N=C3\SC[C@@H]4[C@@H](O)[C@H](O)[C@@H](O)[C@@H](O)N34)cccc12 | 6.44
CN(C)c1ccc(-c2cnc(-c3ccc(S(=O)(=O)NCCCC/N=C4\SC[C@@H]5[C@@H](O)[C@H](O)[C@@H](O)[C@@H](O)N45)cc3)o2)cc1 | 6.26
Cl.NCCCC/N=C1\SC[C@@H]2[C@@H](O)[C@H](O)[C@@H](O)[C@@H](O)N12 | 4.89
CCCCCCCC/N=C1\SC[C@@H]2[C@@H](O)[C@H](O)[C@@H](O)[C@@H](O)N12 | 6.12

----------
Target: Alpha-glucosidase MAL12 (Saccharomyces cerevisiae S288c)
Sequence (P53341 whole entry): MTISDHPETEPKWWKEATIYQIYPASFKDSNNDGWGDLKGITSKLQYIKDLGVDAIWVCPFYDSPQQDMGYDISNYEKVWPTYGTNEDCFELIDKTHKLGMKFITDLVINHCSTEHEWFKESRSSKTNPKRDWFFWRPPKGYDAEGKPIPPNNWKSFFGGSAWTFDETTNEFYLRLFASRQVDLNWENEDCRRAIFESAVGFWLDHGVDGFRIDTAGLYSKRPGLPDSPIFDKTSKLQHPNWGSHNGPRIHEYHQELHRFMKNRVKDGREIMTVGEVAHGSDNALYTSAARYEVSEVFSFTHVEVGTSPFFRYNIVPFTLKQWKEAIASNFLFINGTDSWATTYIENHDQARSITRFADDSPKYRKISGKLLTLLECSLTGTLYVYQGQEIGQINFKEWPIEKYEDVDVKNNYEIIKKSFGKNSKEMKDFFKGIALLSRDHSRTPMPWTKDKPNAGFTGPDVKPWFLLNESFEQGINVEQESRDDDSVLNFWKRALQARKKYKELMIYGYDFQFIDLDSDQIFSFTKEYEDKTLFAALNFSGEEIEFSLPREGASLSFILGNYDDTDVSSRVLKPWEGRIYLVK
Experiment: Inhibition of yeast alpha-glucosidase after 10 to 30 mins
pKi: −log10 of the molar value.
pKi by entry:
MEASUREMENT TYPE: pKi

COMPOUND SMILES | MEASUREMENT TYPE | RESULT NUMBER
CN(C)c1cccc2c(S(=O)(=O)NCCCC/N=C3\SC[C@@H]4[C@@H](O)[C@H](O)[C@@H](O)[C@@H](O)N34)cccc12 | pKi | 3.61
CN(C)c1ccc(-c2cnc(-c3ccc(S(=O)(=O)NCCCC/N=C4\SC[C@@H]5[C@@H](O)[C@H](O)[C@@H](O)[C@@H](O)N45)cc3)o2)cc1 | pKi | 3.15
CCN(CC)c1ccc2cc(C(=O)NCCCC/N=C3\SC[C@@H]4[C@@H](O)[C@H](O)[C@@H](O)[C@@H](O)N34)c(=O)oc2c1 | pKi | 3.50

----------
Assay: Inhibition of Penicillium decumbens naringinase after 10 to 30 mins
pKi: −log10 of the molar value.
MEASUREMENT TYPE: pKi

COMPOUND SMILES | RESULT NUMBER
CCCCCCCC/N=C1\SC[C@@H]2[C@@H](O)[C@H](O)[C@@H](O)[C@@H](O)N12 | 6.64
CN(C)c1cccc2c(S(=O)(=O)NCCCC/N=C3\SC[C@@H]4[C@@H](O)[C@H](O)[C@@H](O)[C@@H](O)N34)cccc12 | 6.68
CN(C)c1ccc(-c2cnc(-c3ccc(S(=O)(=O)NCCCC/N=C4\SC[C@@H]5[C@@H](O)[C@H](O)[C@@H](O)[C@@H](O)N45)cc3)o2)cc1 | 5.92
Cl.NCCCC/N=C1\SC[C@@H]2[C@@H](O)[C@H](O)[C@@H](O)[C@@H](O)N12 | 5.74
CCN(CC)c1ccc2cc(C(=O)NCCCC/N=C3\SC[C@@H]4[C@@H](O)[C@H](O)[C@@H](O)[C@@H](O)N34)c(=O)oc2c1 | 7.14

----------
As shown below, each of these compounds has a reported Ki value.
Biological target: UniProtKB I3LIR5
Sequence (I3LIR5 whole entry): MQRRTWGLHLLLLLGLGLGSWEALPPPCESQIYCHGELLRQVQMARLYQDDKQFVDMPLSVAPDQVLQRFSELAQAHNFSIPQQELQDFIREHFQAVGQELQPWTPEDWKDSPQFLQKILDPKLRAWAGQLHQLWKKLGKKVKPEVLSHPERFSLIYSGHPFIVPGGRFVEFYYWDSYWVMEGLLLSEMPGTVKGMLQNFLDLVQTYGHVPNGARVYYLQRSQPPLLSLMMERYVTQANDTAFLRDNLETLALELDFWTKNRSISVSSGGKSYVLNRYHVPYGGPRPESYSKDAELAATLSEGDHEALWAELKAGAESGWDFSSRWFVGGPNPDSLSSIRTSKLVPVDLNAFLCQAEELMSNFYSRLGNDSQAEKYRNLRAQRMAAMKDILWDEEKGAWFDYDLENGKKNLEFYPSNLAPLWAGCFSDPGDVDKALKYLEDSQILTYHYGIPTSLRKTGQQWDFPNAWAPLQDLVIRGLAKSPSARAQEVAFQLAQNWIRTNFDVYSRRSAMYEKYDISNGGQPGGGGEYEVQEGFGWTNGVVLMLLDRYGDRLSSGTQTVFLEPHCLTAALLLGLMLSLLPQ
Assay: Inhibition of pig kidney trehalase after 10 to 30 mins

COMPOUND SMILES | UNITS | Ki
Cl.NCCCC/N=C1\SC[C@@H]2[C@@H](O)[C@H](O)[C@@H](O)[C@@H](O)N12 | µM | 116
CN(C)c1cccc2c(S(=O)(=O)NCCCC/N=C3\SC[C@@H]4[C@@H](O)[C@H](O)[C@@H](O)[C@@H](O)N34)cccc12 | µM | 293
CCCCCCCC/N=C1\SC[C@@H]2[C@@H](O)[C@H](O)[C@@H](O)[C@@H](O)N12 | µM | 13.4
CCN(CC)c1ccc2cc(C(=O)NCCCC/N=C3\SC[C@@H]4[C@@H](O)[C@H](O)[C@@H](O)[C@@H](O)N34)c(=O)oc2c1 | µM | 28.2
